IC50: recorded values
Target: KDM6A (UTX) (Homo sapiens, UniProt O15550)
Sequence (O15550 919-1401): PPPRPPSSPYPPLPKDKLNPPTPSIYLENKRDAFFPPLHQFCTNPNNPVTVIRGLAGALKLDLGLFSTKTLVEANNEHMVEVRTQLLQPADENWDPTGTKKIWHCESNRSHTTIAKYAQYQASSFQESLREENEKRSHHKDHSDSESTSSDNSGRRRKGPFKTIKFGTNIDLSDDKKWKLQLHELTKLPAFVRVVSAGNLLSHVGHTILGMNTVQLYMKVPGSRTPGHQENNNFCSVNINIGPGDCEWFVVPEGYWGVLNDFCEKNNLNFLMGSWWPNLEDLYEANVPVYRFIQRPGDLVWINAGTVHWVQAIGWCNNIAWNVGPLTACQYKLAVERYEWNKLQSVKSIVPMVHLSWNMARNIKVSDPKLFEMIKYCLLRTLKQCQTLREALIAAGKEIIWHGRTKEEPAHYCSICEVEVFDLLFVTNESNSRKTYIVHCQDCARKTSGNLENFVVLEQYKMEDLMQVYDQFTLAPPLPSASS
Assay: Histone lysine demethylase AlphaLISA assay, KDM6A
Type: biochemical
Conditions: read-out: KDM6A HDME Inhibition IC50
Readout: IC50

>  <Compound>
CN(C)CCNCc1ccnc(CNCCCN(C)Cc2ccccc2)c1

>  <Measured Value>
> 2500 nM

$$$$
>  <Compound>
CCN(CC)CCCCNCc1cc(C2NCC3(CCCC3)CO2)ccn1 (stereo not drawn)

>  <Measured Value>
> 2500 nM

$$$$
>  <Compound>
CCN(CC)CCCCNCc1cc(/C=N/CCO)ccn1

>  <Measured Value>
> 2500 nM

$$$$
>  <Compound>
N#CCNCc1ccnc(CNCCCCN(Cc2ccccc2)C2CC2)c1

>  <Measured Value>
> 2500 nM

$$$$
>  <Compound>
CN(C)CCCCCNCc1cc(/C=N/C2CC2)ccn1

>  <Measured Value>
> 2500 nM

$$$$
>  <Compound>
CC(C)C[C@H](NCc1cc(/C=N/CCO)ccn1)C(=O)N1CCCCC1

>  <Measured Value>
> 2500 nM

$$$$
>  <Compound>
CN(C)C(=O)CNCc1cc(/C=N/CCC2CCCCC2)ccn1

>  <Measured Value>
> 2500 nM

$$$$
>  <Compound>
CN(C)C/C=C/CNCc1cc(C=O)ccn1

>  <Measured Value>
> 2500 nM

$$$$
>  <Compound>
CCN(CC)CCCCNC(=O)CNCc1cc(C=O)ccn1

>  <Measured Value>
> 2500 nM

$$$$
>  <Compound>
CCCNCc1cc(CNC2CC2)ccn1

>  <Measured Value>
> 2500 nM

$$$$
>  <Compound>
CCN(CC)C(=O)CNCc1cc(/C=N/CCc2ccc(C)cc2)ccn1

>  <Measured Value>
> 2500 nM

$$$$
>  <Compound>
CN(C)CCCCNCc1cc(/C=N\C2CC2)ccn1

>  <Measured Value>
> 2500 nM

$$$$
>  <Compound>
c1ccc(CN2CCC[C@H]2CNCc2cc(CNCC3CC3)ccn2)cc1

>  <Measured Value>
> 2500 nM

$$$$
>  <Compound>
CN(C)CCCCNCc1cc(CN)ccn1

>  <Measured Value>
> 2500 nM

$$$$
>  <Compound>
CN(C)CC1CCC(CNCc2cc(/C=N/C3CC3)ccn2)CC1 (stereo not drawn)

>  <Measured Value>
> 2500 nM

$$$$
